Target: T1, human CD24 (human, UniProt P25063 27-59, heavily glycosylated, GPI-anchored (as described in the background))
T1 construct: whole, on cells; Target of all cell-based FACS assays; also called hCD24; Cluster of differentiation 24
T1 chain (looked up): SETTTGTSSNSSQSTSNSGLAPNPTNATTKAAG
Test: FACS, Nalm1 cells
Procedure: Sequences of some of antibodies from Table 1 were selected to generate and produce human IgG4 chimeric antibodies. […] The protocol for FACs analysis is described as follows: [0536] a. Digested cells using TrypLE™ Express Enzyme (IX); Centrifuged the harvested cells at 400 g for 5 min and discarding the supernatant. [0537] b. Washed the cells 2 times with cold FACS buffer by centrifuging at 400 g for 5 min and discarding the supernatant. [0538] c. […] Incubate at 40° C. for 1 h. [0539] d. […]
endpoint: pEC50
Just the number, please; pEC50 means minus log10 of the concentration in mol/L.

Task item: Tell us which pEC50 value is on record for SN3 (antibody, V domains shown) VH: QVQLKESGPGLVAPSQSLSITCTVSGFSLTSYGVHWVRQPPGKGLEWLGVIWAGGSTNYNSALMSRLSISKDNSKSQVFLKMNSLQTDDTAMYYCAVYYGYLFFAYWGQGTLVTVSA VL: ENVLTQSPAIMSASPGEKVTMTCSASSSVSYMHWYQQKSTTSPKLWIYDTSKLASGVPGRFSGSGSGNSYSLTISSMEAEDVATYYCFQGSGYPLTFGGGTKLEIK
Reply: 8.46
